Values were extracted from patent US20260250371A1.

Target: T1, recombinant human FGF23 (R179Q) (human, UniProt Q9GZV9 25-251)
T1 construct: also called rhFGF23(R179Q); hFGF23(R179Q)
T1 sequence (looked up): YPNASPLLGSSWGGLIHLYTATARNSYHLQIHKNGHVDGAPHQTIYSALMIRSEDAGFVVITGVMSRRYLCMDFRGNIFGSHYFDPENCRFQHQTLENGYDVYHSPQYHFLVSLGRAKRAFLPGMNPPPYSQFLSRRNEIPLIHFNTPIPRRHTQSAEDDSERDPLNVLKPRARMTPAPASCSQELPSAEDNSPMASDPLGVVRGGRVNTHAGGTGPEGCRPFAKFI
Experiment: SPR, antibody captured on hIgG chip, rhFGF23(R179Q) analyte
Label 1 when koff is strictly below 0.0002 s⁻¹; at or above that, label -1.

Solved entries:
Regarding UGX182 (antibody, human IgG1, kappa, V domains shown, also called HC:S59D, HC:V101I; S59D/V101I) VH: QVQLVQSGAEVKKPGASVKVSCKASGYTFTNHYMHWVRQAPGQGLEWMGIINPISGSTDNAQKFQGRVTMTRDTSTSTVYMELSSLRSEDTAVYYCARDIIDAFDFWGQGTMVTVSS VL: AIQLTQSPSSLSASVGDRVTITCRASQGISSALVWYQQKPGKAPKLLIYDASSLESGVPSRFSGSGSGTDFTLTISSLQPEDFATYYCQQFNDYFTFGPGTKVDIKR , kindly confirm whether its koff is beneath 0.0002 s⁻¹.
1

Regarding UGX164 (antibody, human IgG1, kappa, V domains shown, also called HC:S59T) VH: QVQLVQSGAEVKKPGASVKVSCKASGYTFTNHYMHWVRQAPGQGLEWMGIINPISGSTTNAQKFQGRVTMTRDTSTSTVYMELSSLRSEDTAVYYCARDIVDAFDFWGQGTMVTVSS VL: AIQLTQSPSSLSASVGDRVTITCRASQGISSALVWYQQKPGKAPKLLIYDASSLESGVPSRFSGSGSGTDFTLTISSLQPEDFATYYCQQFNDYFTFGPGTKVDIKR , kindly confirm whether its koff is beneath 0.0002 s⁻¹.
1

Regarding UGX127 (antibody, human IgG1, kappa, V domains shown, also called UGX017; LC:S52E) VH: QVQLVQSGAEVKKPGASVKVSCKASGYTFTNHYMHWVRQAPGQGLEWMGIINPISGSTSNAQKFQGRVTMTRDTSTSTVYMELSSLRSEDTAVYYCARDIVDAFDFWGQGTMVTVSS VL: AIQLTQSPSSLSASVGDRVTITCRASQGISSALVWYQQKPGKAPKLLIYDAESLESGVPSRFSGSGSGTDFTLTISSLQPEDFATYYCQQFNDYFTFGPGTKVDIKR , kindly confirm whether its koff is beneath 0.0002 s⁻¹.
1

Regarding UGX178 (antibody, human IgG1, kappa, V domains shown, also called HC:N31F, HC:S59F) VH: QVQLVQSGAEVKKPGASVKVSCKASGYTFTFHYMHWVRQAPGQGLEWMGIINPISGSTFNAQKFQGRVTMTRDTSTSTVYMELSSLRSEDTAVYYCARDIVDAFDFWGQGTMVTVSS VL: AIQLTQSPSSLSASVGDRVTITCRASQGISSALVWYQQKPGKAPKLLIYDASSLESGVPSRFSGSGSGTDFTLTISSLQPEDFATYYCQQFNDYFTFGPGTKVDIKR , kindly confirm whether its koff is beneath 0.0002 s⁻¹.
1

API: the following record is the query input.
Regarding UGX151 (antibody, human IgG1, kappa, V domains shown, also called HC:N31F) VH: QVQLVQSGAEVKKPGASVKVSCKASGYTFTFHYMHWVRQAPGQGLEWMGIINPISGSTSNAQKFQGRVTMTRDTSTSTVYMELSSLRSEDTAVYYCARDIVDAFDFWGQGTMVTVSS VL: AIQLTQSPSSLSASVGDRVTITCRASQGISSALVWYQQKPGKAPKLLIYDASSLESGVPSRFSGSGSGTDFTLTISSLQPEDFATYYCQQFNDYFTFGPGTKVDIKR , kindly confirm whether its koff is beneath 0.0002 s⁻¹.
-1
